The reported measurements were obtained from paper PMC5540273.

- Test system: CDK11;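 also: KINOMEscan kinase panel screen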
- Construct: gene CDK19
- testParameters: concentration: 1 μM, replicates: in singlicate; n = 1
# key: entry, value: %Inh

>  <compound>
CC(=O)Nc1nc2cnc(Nc3cc(NC(=O)c4cccc(CCC#N)c4)ccc3C)nc2s1

>  <%Inh, %>
2

$$$$
>  <compound>
C[C@@H]1CCCCN1c1cc(-c2ccc3c(N)n[nH]c3c2)nc(N)n1

>  <%Inh, %>
4

$$$$
>  <compound>
Nc1nc(-c2nccs2)c(-c2ccnc3ccccc23)s1

>  <%Inh, %>
0

$$$$
>  <compound>
Cn1ccc2ncnc(Oc3cccc(C(=O)Nc4ccccc4)c3)c21

>  <%Inh, %>
0

$$$$
>  <compound>
Cc1cc(N2Cc3ccccc3C2)nc(Nc2ccc(S(=O)(=O)N3CCOCC3)cc2)n1.Cl

>  <%Inh, %>
0

$$$$
>  <compound>
Nc1ncnc2[nH]c(-c3ccccc3)nc12

>  <%Inh, %>
0

$$$$
>  <compound>
Cn1cncc1-c1ccc2ncnc(Nc3ccc(OCc4ccccc4)cc3)c2c1

>  <%Inh, %>
10

$$$$
>  <compound>
Cl.c1ccc(-c2n[nH]cc2-c2ccnc(-c3ccc(CN4CCOCC4)cc3)c2)nc1

>  <%Inh, %>
0

$$$$
>  <compound>
COc1ccccc1CNC(=O)c1cc(C(=O)c2ccccc2C)c[nH]1

>  <%Inh, %>
15

$$$$
>  <compound>
Cc1cccc(-c2nc(Nc3cccc(C(N)=O)c3)c3ccccc3n2)n1

>  <%Inh, %>
8

$$$$
>  <compound>
O=c1cc(N2CCOCC2)nc2n(Cc3cccc(Cl)c3Cl)ccn12

>  <%Inh, %>
23

$$$$
>  <compound>
Cc1cccc(-c2nc(-c3ccc(S(C)(=O)=O)cc3)sc2-c2ccnc(NCCc3ccccc3)c2)c1

>  <%Inh, %>
0

$$$$
>  <compound>
Cc1nnc(-c2ccc3occ(-c4ccc(S(C)=O)cc4)c3c2)[nH]1 (stereo not drawn)

>  <%Inh, %>
0

$$$$
>  <compound>
CCn1c(-c2ccccn2)nc2cnccc21

>  <%Inh, %>
0

$$$$
>  <compound>
CS(=O)(=O)c1ccc(-c2c(-c3ncn[nH]3)sc(N3CCOCC3)c2C#N)cc1

>  <%Inh, %>
0

$$$$
>  <compound>
NC(=O)c1nnc2ccccc2c1N

>  <%Inh, %>
3

$$$$
>  <compound>
COc1cc2ncnc(Nc3ccc4nc(-c5ccccc5)[nH]c4c3)c2cc1OC.Cl

>  <%Inh, %>
0

$$$$
>  <compound>
Cl.NC(=O)c1cccc(Nc2nccc(Nc3ccc(Oc4cccc(Cl)c4)c(Cl)c3)n2)c1

>  <%Inh, %>
8

$$$$
>  <compound>
O=S(=O)(c1ccc(-c2ccnc3[nH]ccc23)cc1)N1CCCC1

>  <%Inh, %>
2

$$$$
>  <compound>
O=C(Nc1n[nH]c2nc(-c3nccs3)c(Br)cc12)C1CCCC1

>  <%Inh, %>
0

$$$$
>  <compound>
CC(C)(C)c1ccc(C(=O)Nc2cn3cc(Cl)ccc3n2)cc1

>  <%Inh, %>
16

$$$$
>  <compound>
Fc1cc(Cl)ccc1Nc1ccnc2cc(I)ccc12

>  <%Inh, %>
16

$$$$
>  <compound>
COc1cccc(-c2cc(-c3c[nH]nc3-c3ccccn3)ccn2)c1

>  <%Inh, %>
10

$$$$
>  <compound>
COC(=O)c1c(-c2ccccc2)c2cc(C(=O)O)ccc2c(=O)n1Cc1ccccc1

>  <%Inh, %>
0

$$$$
>  <compound>
O=C(Nc1ccc2c(c1)OCO2)NC1CCN(c2ccnc(Nc3ccc(F)cc3)n2)C1 (stereo not drawn)

>  <%Inh, %>
40

$$$$
>  <compound>
Cc1ccc(-c2cc(-c3c[nH]nc3-c3ccccn3)ccn2)cc1

>  <%Inh, %>
16

$$$$
>  <compound>
O=C(Nc1n[nH]c2cc(-c3cccc(F)c3F)ccc12)C1CC1

>  <%Inh, %>
5

$$$$
>  <compound>
Cc1cccc(-c2nc(C)cc(Nc3ccncc3)n2)n1

>  <%Inh, %>
12

$$$$
>  <compound>
COc1cc2ncn(-c3cc(OCC4CCCO4)c(C(N)=O)s3)c2cc1OC (stereo not drawn)

>  <%Inh, %>
0

$$$$
>  <compound>
Cc1cccc(-c2nc(Nc3ccncc3)c3ccccc3n2)n1

>  <%Inh, %>
0

$$$$
>  <compound>
COc1cc2nccc(Nc3ccc(NC(=O)c4ccc(C)cc4)c(O)c3)c2cc1OC.Cl

>  <%Inh, %>
5

$$$$
>  <compound>
O=C(Nc1n[nH]c2nc(-c3nccs3)c(Br)cc12)C1CC1

>  <%Inh, %>
0

$$$$
>  <compound>
Cl.O=C(Nc1cccc(-c2nn3ncccc3c2-c2ccnc(Nc3cccnc3)n2)c1)c1c(F)cccc1F

>  <%Inh, %>
0

$$$$
>  <compound>
Cc1ccc(NC(=O)Nc2cccc(Cl)c2)cc1-c1ccc(C(=O)Nc2ccncc2)cc1

>  <%Inh, %>
14

$$$$
>  <compound>
COc1ccc(Nc2nccc(NCCNC(=O)Nc3ccccc3F)n2)cc1

>  <%Inh, %>
12

$$$$
>  <compound>
COc1cccc(NC(=O)NC2CCN(c3ccnc(Nc4ccc(F)cc4)n3)C2)c1 (stereo not drawn)

>  <%Inh, %>
59

$$$$
>  <compound>
CS(=O)(=O)c1ccc(-c2nc3n(c2-c2ccncc2)CCC3)cc1

>  <%Inh, %>
0

$$$$
>  <compound>
CCCc1ccc(S(=O)(=O)NC2CCN(c3ccnc(Nc4ccc(F)cc4)n3)C2)cc1 (stereo not drawn)

>  <%Inh, %>
5

$$$$
>  <compound>
COc1ccc2nc(-c3cccc(C)n3)nc(Nc3ccncc3)c2c1

>  <%Inh, %>
0

$$$$
